Assay: calcein-AM signal in unstimulated myeloma cells – cell-based, calcein-AM fluorescence, 48 h, PK04 Diversity Set, profiling panel (AID 1166);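 note: cells grown under basal conditions without added stimulus; test concentration not given here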
Conditions: RPMI8226 myeloma viability, higher = more signal
// NB: equality with -3 counts as Not satisfied; only z-score strictly below is Satisfied

Consider the worked cases shown below.
CC[C@@H]1C=C(C(=O)O)[C@H](c2ccccc2)N1S(=O)(=O)c1ccc(C)cc1 : Not satisfied
CC(C)(C)OC(=O)COc1cccc(C(=O)CCN2CCOCC2)c1 : Satisfied
COc1ccc([Si](C)(C)[C@@H]2[C@@H](CCO)O[C@]3(C(=O)N(Cc4ccccc4)c4ccc(NC(=O)[C@H](C)O)cc43)[C@H]2C)cc1 : Satisfied
COc1ccc(C#Cc2ccc3c(c2)[C@]2(C(=O)N3)[C@H](c3ccc(O)cc3)N3[C@H](c4ccccc4)[C@H](c4ccccc4)OC(=O)[C@H]3[C@@H]2C(=O)Nc2nc3ccccc3s2)cc1 : Not satisfied

Please turn your attention to the following entry.
Input line: Take the compound CC(=O)NCCCC[C@@H]1NC(=O)[C@@H]2C[C@H](C(=O)NCCCCCN)[C@H](c3ccc(O)cc3)N2C1=O and say whether its z-score is less than -3.
Output line: Not satisfied
